# Measurement notes: Human HepG2 cell viability assay in 384 well format
# Format: toxicity, cell-based
# Design: dose 125 nL, time 70.5 hour; concentration not given beside the values
# Condition context: HepG2 cells, read-out: Inhibition
Measured cytotoxicity at 70.5 h values are reported for all entries that follow.
Quick note: give the figure in %, leave out the unit.

Before answering, review these 3 worked examples.
# Molecule, cytotoxicity at 70.5 h (%)
records = [
    ("COCCc1noc(CN2CCCC2Cn2nc(C)nc2C)n1 (stereo not given)", 44.8),
    ("CCC(CC)C(=O)NC1CCCc2nc(N3CCOCC3)ncc21 (stereo not given)", -4.12),
    ("Cc1ccc(Nc2nccc(C3CCN(CC(N)=O)C3)n2)nc1 (stereo not given)", -8.32),
]

query: Kindly indicate its recorded cytotoxicity at 70.5 h. Item: `CC1CCN(C(=O)[C@H]2C[C@@H]3CCN(CC4CCOCC4)C[C@@H]3O2)CC1`
result: -6.29

query: Kindly indicate its recorded cytotoxicity at 70.5 h. Item: `Cn1cc(CN2CC[C@H]3O[C@@H](C(=O)NC4CC4)CC[C@H]32)cn1`
result: -1.4

Just for reference, ChEMBL document CHEMBL3507680 is where these values come from.
